Please go through the items and note down their parasite growth, % of control (lower = inhibition).
# protocol: qHTS profiling of the MIPE4 collection as inhibitors of Plasmodium falciparum (DD2) proliferation (Rep 2) (AID 743346)
# experimental conditions: P. falciparum Dd2 in erythrocytes, SYBR Green DNA, 72 h; at 28.5 µM unless noted
Number in %, nothing else.

Ask | Suppose we examine the compound "CC(C)c1cccc(C(C)C)c1O" ; what parasite growth, % of control (lower = inhibition) value has been reported?
Reply | 85.1

Ask | // query: "CC(C)[C@H](N)C(=O)OCCOCn1cnc2c(=O)[nH]c(N)nc21"
Reply | 136

Ask | // query: "C[C@]12CC[C@@H]3c4ccc(OC(=O)N(CCCl)CCCl)cc4CC[C@H]3[C@@H]1CC[C@@H]2OP(=O)(O)O"
Reply | 86.3

Ask | // query: COCCCOc1ccnc(CS(=O)c2nc3ccccc3[nH]2)c1C (stereo unspecified)
Reply | 63.9

Ask | // query: "CC(C)OC(=O)OCOP(=O)(CO[C@H](C)Cn1cnc2c(N)ncnc21)OCOC(=O)OC(C)C"
Reply | 74.1

Ask | // query: "CC[N+](CC)(CC)CCOc1cccc(OCC[N+](CC)(CC)CC)c1OCC[N+](CC)(CC)CC"
Reply | 133

---

# subject of test: Cytochrome P450 2D6 (Homo sapiens) (UniProt P10635)
# Sequence (P10635 whole entry, looked up): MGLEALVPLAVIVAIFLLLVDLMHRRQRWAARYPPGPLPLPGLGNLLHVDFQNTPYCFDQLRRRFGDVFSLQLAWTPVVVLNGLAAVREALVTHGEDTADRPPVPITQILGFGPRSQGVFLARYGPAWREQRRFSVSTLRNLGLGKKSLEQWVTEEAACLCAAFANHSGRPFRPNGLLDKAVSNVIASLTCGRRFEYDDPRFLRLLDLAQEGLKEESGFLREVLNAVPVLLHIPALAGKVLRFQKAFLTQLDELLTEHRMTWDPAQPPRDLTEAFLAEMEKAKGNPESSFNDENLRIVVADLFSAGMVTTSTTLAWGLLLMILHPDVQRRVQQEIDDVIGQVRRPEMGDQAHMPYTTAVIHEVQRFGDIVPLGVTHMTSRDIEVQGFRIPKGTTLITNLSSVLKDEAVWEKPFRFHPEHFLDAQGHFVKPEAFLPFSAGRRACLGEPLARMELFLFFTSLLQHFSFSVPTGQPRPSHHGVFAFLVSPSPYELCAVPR
# protocol: Cytochrome P450 family 2 subfamily D member 6 (CYP2D6) small molecule antagonists: luciferase biochemical (cell-free) qHTS assay (AID 1645840); further: nearly all actives have a fitted effect of over 55% in size; further: potency means the concentration at half of the fitted maximal effect
# experimental conditions: P450-Glo CYP2D6 enzyme, luciferin luminescence, 1 h; series mostly up to 57.4 µM
Inconclusive results are not listed. Active and inactive are the calls of the source. The call rests on the fitted dose curve; in most records, active means well fitted inhibition curve with a large enough effect in the repeat runs; inconclusive means weak or mixed curves; inactive means flat fitted curve, though single readings scatter.
reported property: Potency

>  <molecule>
CC(Cc1ccccc1)N(C)Cc1ccco1 (stereo not given)

>  <reported property>
Potency

>  <assay value>
2.45 µM (active)

$$$$
>  <molecule>
C[N+]1(CCF)[C@@H]2CC[C@H]1CC(OC(=O)C(O)(c1ccccc1)c1ccccc1)C2 (stereo not given in full)

>  <reported property>
Potency

>  <assay value>
15.5 µM (active)

$$$$
>  <molecule>
CCC(C)(C)c1ccc(O)cc1

>  <reported property>
Potency

>  <assay value>
inactive

$$$$
>  <molecule>
CC(C)(C)NCC(O)c1ccccc1Cl (stereo not given)

>  <reported property>
Potency

>  <assay value>
12.3 µM (active)

$$$$
>  <molecule>
CCCCCCC(=O)CCCCCC/C=C/C[C@@H](O)[C@H](O)[C@@](N)(CO)C(=O)O

>  <reported property>
Potency

>  <assay value>
inactive

$$$$

Attention now turns to another entry.
Ask | Suppose we examine the molecule "CCOP(=S)(OCC)Oc1ccc2c(C)c(Cl)c(=O)oc2c1" ; what Potency value has been reported?
Reply | 15.5 µM (active)

---

# Test system: CAOV3
# protocol: Primary qHTS to identify gynecologic anti-cancer compounds using libraries of approved drugs and bioactive compounds (AID 1345084); further: on the % scale 0 is the no-effect control and ±100 the full control effect; nearly all actives have a fitted effect of over 55% in size
# experimental conditions: Gynecologic cancer cell panel viability, ATPlite luminescence, 48 h; series mostly up to 57.5 µM
Records with an inconclusive call do not appear. Calls of active or inactive are those of the source. The call rests on the fitted dose curve; in most records, active means well fitted cell-killing curve with a large enough effect; inconclusive means small, poorly fitted or top-dose-only effect, or effect the other way; inactive means flat fitted curve, though single readings scatter.
reported property: outcome

Consider the reported outcome for these molecules:
>  <molecule>
CCN[C@H](C)Cc1cccc(C(F)(F)F)c1

>  <assay value>
inactive

$$$$
>  <molecule>
CC(=O)C1CCOC1=O (stereo not drawn)

>  <assay value>
inactive

$$$$
>  <molecule>
CN(C)CCc1c[nH]c2cccc(OP(=O)(O)O)c12

>  <assay value>
inactive

$$$$
>  <molecule>
CN1C(=O)CCS(=O)(=O)C1c1ccc(Cl)cc1 (stereo not drawn)

>  <assay value>
inactive

$$$$

Ask | Suppose we examine the molecule "C[C@H]1[C@@H]2Cc3ccc(O)cc3[C@@]1(C)CCN2C" ; what outcome value has been reported?
Reply | inactive

Ask | // query: "COP(=S)(OC)Oc1ccc(S(=O)(=O)N(C)C)cc1"
Reply | inactive

Ask | // query: "CC(C)NC(C)C"
Reply | inactive

Ask | // query: "CCN[C@@H](C)Cc1cccc(C(F)(F)F)c1"
Reply | inactive

Ask | // query: "COc1cccc(C(=O)CCN[C@@H](C)[C@H](O)c2ccccc2)c1"
Reply | inactive

Ask | // query: "C[C@]12CCC(=O)C=C1CC[C@@H]1[C@H]3CC[C@](C)(O)[C@@]3(C)CC[C@@H]12"
Reply | inactive

Ask | // query: CC1(C)C(C=C(Cl)Cl)C1C(=O)OC(C#N)c1cccc(Oc2ccccc2)c1 (stereo not drawn)
Reply | inactive

Ask | // query: "O=C(CCCN1CCC2(CC1)C(=O)NCN2c1ccccc1)c1ccc(F)cc1"
Reply | inactive

Ask | // query: C=CCC1(C(C)CC)C(=O)NC(=O)NC1=O (stereo not drawn)
Reply | inactive
